# System: Pseudomonas aeruginosa PAE19-3
# Assay type: cell-based
# CONDITION DESCRIPTION: PAE19-3
Bridge positions count the residues as written; N and C are the ends. Square brackets hold non-standard residues; d marks the D form. Peptide text beside a SMILES is read from it. * marks the point of attachment. Nonanoyl = CCCCCCCCC(=O)*; X1 = CC[C@H](C)CCCCC(=O)*; dDab = NCC[C@@H](N)C(=O)O; Heptanoyl = CCCCCCC(=O)*; Orn = NCCC[C@H](N)C(=O)O; Dab = NCC[C@H](N)C(=O)O; Dap = NC[C@H](N)C(=O)O
QUANTITY KIND: MIC (µg/mL)
The response must be a number in µg/mL with no trailing unit.

Reference set (2 entries):
CC[C@H](C)CCCCC(=O)N[C@@H](CN)C(=O)N[C@H](C(=O)N[C@H](CCN)C(=O)N[C@H]1CCNC(=O)[C@H]([C@@H](C)O)NC(=O)[C@H](CCN)NC(=O)[C@H](CCN)NC(=O)[C@H](CC(C)C)NC(=O)[C@@H](Cc2ccccc2)NC(=O)[C@H](CCN)NC1=O)[C@@H](C)O [Compound 91] (X1-[Dap]T[dDab][Dab][Dab][dF]L[Dab][Dab]T; lactam 4-C) | 0.5
CCCCCCC(=O)N[C@@H](CCN)C(=O)N[C@H](C(=O)N[C@H](CO)C(=O)N[C@H]1CCNC(=O)[C@H]([C@@H](C)O)NC(=O)[C@H](CCN)NC(=O)[C@H](CCCN)NC(=O)[C@H]([C@@H](C)O)NC(=O)[C@@H](Cc2ccccc2)NC(=O)[C@H](CCN)NC1=O)[C@@H](C)O [Compound 79] (Heptanoyl-[Dab]T[dS][Dab][Dab][dF]T[Orn][Dab]T; lactam 4-C) | 64

Moving on to another compound below.
Note to self: MIC recorded for CCCCCCCCC(=O)N[C@@H](CCN)C(=O)N[C@H](C(=O)N[C@@H](CCN)C(=O)N[C@H]1CCNC(=O)[C@H]([C@@H](C)O)NC(=O)[C@H](CCN)NC(=O)[C@H](CCN)NC(=O)[C@H]([C@@H](C)O)NC(=O)[C@@H](Cc2ccccc2)NC(=O)[C@H](CCN)NC1=O)[C@@H](C)O [Compound 20] (Nonanoyl-[Dab]T[Dab][Dab][Dab][dF]T[Dab][Dab]T; lactam 4-C) was 2

###

# Test system: Acinetobacter baumannii ABA19-1
# Assay type: cell-based
# CONDITION DESCRIPTION: ABA19-1
Bridge positions count the residues as written; N and C are the ends. Square brackets hold non-standard residues; d marks the D form. Peptide text beside a SMILES is read from it. * marks the point of attachment. Heptanoyl(6-Me) = CC(C)CCCCC(=O)*; Nonanoyl = CCCCCCCCC(=O)*; Orn = NCCC[C@H](N)C(=O)O; Dab = NCC[C@H](N)C(=O)O; Dap = NC[C@H](N)C(=O)O
Documented MIC across a set of molecules
The response must be a number in µg/mL with no trailing unit.

Reference set (2 entries):
CC(C)CCCCC(=O)N[C@@H](CCN)C(=O)N[C@H](C(=O)N[C@@H](CCCN)C(=O)N[C@H]1CCNC(=O)[C@H]([C@@H](C)O)NC(=O)[C@H](CCN)NC(=O)[C@H](CCN)NC(=O)[C@H](CC(C)C)NC(=O)[C@@H](Cc2ccccc2)NC(=O)[C@H](CCN)NC1=O)[C@@H](C)O [Compound 47] ({Heptanoyl(6-Me)}-[Dab]T[Orn][Dab][Dab][dF]L[Dab][Dab]T; lactam 4-C) | 0.125
CC(C)CCCCC(=O)N[C@@H](CCN)C(=O)N[C@H](C(=O)N[C@H](CO)C(=O)N[C@H]1CCNC(=O)[C@H]([C@@H](C)O)NC(=O)[C@H](CCN)NC(=O)[C@H](CCN)NC(=O)[C@H]([C@@H](C)O)NC(=O)[C@@H](Cc2ccccc2)NC(=O)[C@H](CCCN)NC1=O)[C@@H](C)O [Compound 67] ({Heptanoyl(6-Me)}-[Dab]T[dS][Dab][Orn][dF]T[Dab][Dab]T; lactam 4-C) | 0.25

Moving on to another molecule below.
Note to self: MIC recorded for CCCCCCCCC(=O)N[C@@H](CCN)C(=O)N[C@H](C(=O)N[C@H](CO)C(=O)N[C@H]1CCNC(=O)[C@H]([C@@H](C)O)NC(=O)[C@H](CCN)NC(=O)[C@H](CCN)NC(=O)[C@H]([C@@H](C)O)NC(=O)[C@@H](Cc2ccccc2)NC(=O)[C@H](CN)NC1=O)[C@@H](C)O [Compound 65] (Nonanoyl-[Dab]T[dS][Dab][Dap][dF]T[Dab][Dab]T; lactam 4-C) was 0.25
